// cross-study collection: IC50 for TBK1 (Homo sapiens)

Report IC50 for O=C(NCCCn1ccc2cnc(Nc3cccc(NC(=O)N4CCCC4)c3)nc21)c1cccs1 please. 100 to 1000 nM

Please do the same for Nc1ccc(-c2c[nH]c3ncc(-c4ccc(CN5CCOCC5)s4)cc23)c2c1C(=O)NC2 as well. 32 nM

Please do the same for Cn1cc(-c2cnc3[nH]cc(-c4ccc(OCC5(C)COC5)c(C#N)c4)c3c2)cn1 as well. < 300 nM

Please do the same for N#Cc1cc(-c2ccnc(Nc3cnn(CCN4CCCC4)c3)n2)ccc1OC1CCOCC1 as well. 60 nM

====

// cross-study collection: log10 of IC50 for TBK1 (Homo sapiens, UniProt Q9UHD2)
Note: values are log10 of IC50 expressed in nM.

Which log10 of IC50 is reported with TBK1 (Homo sapiens, UniProt Q9UHD2) for this entry: CC(=O)N1CCN(Cc2ccc(C(=O)Nc3sc(-c4ccncc4)nc3C(N)=O)cc2)CC1 ? 2.15

Please do the same for N#Cc1cc(-c2ccnc(Nc3ccc(C(N)=O)cn3)c2)ccc1OC1CCOCC1 as well. 1.51

Please do the same for COc1cccc(Nc2cc(-c3ccc(N)c4c3CNC4=O)ccn2)c1 as well. 3.09

Please do the same for O=C(c1cccs1)N1CC=C(c2c[nH]c3ncc(-c4csc(CN5CCOCC5)c4)cc23)CC1 as well. 1.68

Please do the same for CC(C)NC(=O)N1CC=C(c2c[nH]c3ncc(-c4cc(CN5CCOCC5)ccc4F)cc23)CC1 as well. 1.85

Please do the same for CC(=O)c1c[nH]c(-c2cnc(N)c(C(=O)Nc3ccncc3)c2)c1 as well. 2.38

Please do the same for O=C(NC1CCCC1)N1CC=C(c2c[nH]c3ncc(-c4csc(CN5CCOCC5)c4)cc23)CC1 as well. 2.79

Please do the same for Nc1ncc(-c2ccc[nH]2)cc1C(=O)Nc1ccncc1 as well. 2.61

Please do the same for CC(=O)Nc1ccc(-c2ccnc(Nc3cccc(F)c3)n2)c2c1C(=O)NC2 as well. 3.60

Please do the same for Nc1ncc(-c2cccc(-n3cccn3)c2)cc1C(=O)Nc1ccncc1 as well. 2.60

Please do the same for CC1=C(c2c[nH]c3ncc(-c4ccc(CN5CCOCC5)s4)cc23)CCN(C(=O)NC2CCCC2)C1 as well. 2.34

Please do the same for CC(C)(C)OC(=O)N1CC=C(c2c[nH]c3ncc(-c4ccc(CN5CCOCC5)s4)cc23)CC1 as well. 2.90
